Consider the following molecules; for each one, report its melting point.

>  <molecule>
O=C(Nc1cccnc1)N1CCN(c2nccc(-c3cccc(F)c3F)n2)CC1

>  <melting point>
232 to 233 °C

$$$$

Below is a list of molecules. For each, state its recorded melting point.
1. CCOC(=O)c1nc(-c2ccc(CN(C)C)cc2)[nH]c1-c1ccc(Cl)cc1
2. Cc1c(NC(=O)CC(C)(C)C)cc2c(c1C)OC(C)(C)C2c1ccccc1 (stereo not given)
3. C[C@@H](N1CC(=O)N(c2ccc(OC(F)(F)C(F)F)cc2)CC1=O)[C@@]1(c2ccc(F)cc2F)CO1
4. O=C(O)c1ccc(OC(F)(F)F)c(Cl)c1Cl
5. Cc1cc(-c2ccc(Cl)c(OC3SCC(O)C(O)C3O)c2)ccn1 (stereo not given)
6. O=C(O)CCC(=O)c1cc2c(s1)CCc1ccccc1C2

Solution:
117 to 118 °C
182 to 183 °C
168 to 170 °C
123 to 126 °C
137 °C
202 to 203 °C

Lab note: each molecule below needs its melting point filled in.
1. Nc1ccc(-n2ccn(-c3ccc(OC(F)(F)C(F)F)cc3)c2=O)cc1
2. O=C1CCCc2c1ccn2S(=O)(=O)c1ccccc1
3. CCCCOCCCn1c(CCCC)nc2c(N)nc3cccnc3c21

Solution:
1. 150 to 151 °C
2. 108 to 110 °C
3. 101 to 102 °C

====

assayEndpoint: melting point

Take a look at these entries with their results.
>  <compound>
CCCn1nnn(-c2cc(OC(C)=O)c(Cl)cc2Cl)c1=O

>  <melting point>
91 to 92 °C

$$$$
>  <compound>
C=CCON=C(CC)C1=C(OCc2ccccc2)CC(C)(C)CC1=O

>  <melting point>
60.5 to 61.5 °C

$$$$
>  <compound>
Nc1nc2c(s1)CCN(CC=Cc1cccc([N+](=O)[O-])c1)CC2

>  <melting point>
165 to 168 °C

$$$$
>  <compound>
CCCn1ccc2c(NCCc3ccc(OC)cc3)cccc2c1=O

>  <melting point>
109 to 110 °C

$$$$
>  <compound>
OC1(CNCc2ccccc2)CCN(CCc2c[nH]c3ccc(-n4cnnc4)cc23)C1 (stereo unspecified)

>  <melting point>
> 56 °C

$$$$

// batch mode: one melting point value per listed entry
1. O=C(Nc1c(C(O)(C(F)(F)F)C(F)(F)F)ccc2ccccc12)c1cc(Cl)cc(Cl)c1
2. CS(=O)(=O)c1[nH]nc(-c2ccc(F)cc2)c1-c1ccncc1
3. CC1(C)CCC(C)(C)c2cc(COc3ccccc3-c3ccccc3C(=O)O)ccc21
4. COc1ccccc1N1CCN(C(=O)Nc2nc3ccccc3nc2OC)CC1
5. O=C(OCC1CC1)c1ncn2c1[C@@H]1CCCN1C(=O)c1c(I)cccc1-2
6. Nc1ncc2cc(-c3c(F)cccc3F)c(N)nc2n1
7. O=Cc1cc(-c2ccccc2F)n(S(=O)(=O)c2cccnc2)c1

Solution:
["205 to 207 °C", "297 to 300 °C", "75 to 76 °C", "177 to 178 °C", "164 to 165 °C", "> 300 °C", "106 to 108 °C"]

====

Provide the recorded melting point for the entries that follow.

>  <molecule>
FC(F)(F)c1cccc(Oc2nccc(-c3ccc(Cl)c(Cl)c3)n2)c1

>  <melting point>
106 °C

$$$$
>  <molecule>
O=C1c2ccccc2C(=O)N1Cc1ccccc1[N+](=O)[O-]

>  <melting point>
190 to 209 °C

$$$$
>  <molecule>
CCOC(=O)c1cnc2n(c1=O)C(C)CCC2=NN (stereo not given)

>  <melting point>
199 to 200 °C

$$$$
>  <molecule>
CC(C)(C)C(NC(=O)c1cccc(-c2ccco2)c1)Nc1c(Nc2cccnc2)c(=O)c1=O (stereo not given)

>  <melting point>
251 to 252 °C

$$$$
>  <molecule>
O=C(O)C(Cc1ccccc1)Nc1cc(-c2ccc(Cc3ccccc3)cc2)ncn1 (stereo not given)

>  <melting point>
116 to 118 °C

$$$$

For every item in the list below, what is its measured melting point?
1. O=C1NC(=O)c2c1c(-c1ccccc1)cc1c2c2cc(O)ccc2n1CCCCCCBr
2. O=C1C(=C(O)C(F)(F)F)CCc2ccccc21
3. Nc1cc(=O)n(Cc2cc(Cl)cc(Cl)c2)[nH]1
4. COc1cc(C=CC(=O)CC(C)=O)ccc1O
5. CC(C)(C)n1nc2nc3n(c(=O)c2c1N)CCS3

Solution:
1. 214 to 216 °C
2. 48 to 49 °C
3. 175 to 176 °C
4. 146 to 147 °C
5. 154 to 158 °C
